B1: PPFIA4 (parent)
chain: YAGNLHESGVHGALLALDENFDHN

# Variants of: B1
# Assay: protein stability index of a GFP-peptide fusion (GPS, HEK-293T) (PSI 1-6); higher = more stable;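 also: lentivirally expressed fusions sorted by FACS into six bins by GFP to DsRed ratio, PSI derived from sequencing read proportions per bin multiplied by bin number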
# Particulars: c terminus: a fixed tail appended
A collection of variants and their measured protein stability index
Reported endpoint: protein stability index

Item sequence: YAGNLHESGVHWALLALDENFDHN [G12W]
Reported endpoint: protein stability index
Test value: 3.02
--
Item sequence: YAGNLHESGVHGALLYLDENFDHN [A16Y]
Reported endpoint: protein stability index
Test value: 2.06
--
Item sequence: YAGNLHESGVHGALLALDENTDHN [F21T]
Reported endpoint: protein stability index
Test value: 3.37
--
Item sequence: YAGNLHEPGVHGALLALDENFDHN [S8P]
Reported endpoint: protein stability index
Test value: 2.49
--
Item sequence: YAGNLHESGVSGALLALDENFDHN [H11S]
Reported endpoint: protein stability index
Test value: 2.9
--
Item sequence: YAGNRHESGVHGALLALDENFDHN [L5R]
Reported endpoint: protein stability index
Test value: 3.11
--
Item sequence: YAGNLHESGVHGALLCLDENFDHN [A16C]
Reported endpoint: protein stability index
Test value: 2.39
--
Item sequence: YAGNLHESGVHGALKALDENFDHN [L15K]
Reported endpoint: protein stability index
Test value: 3.46
--
Item sequence: YAGNLHESGVHHALLALDENFDHN [G12H]
Reported endpoint: protein stability index
Test value: 2.71
--
Item sequence: YAGNLHESGVHGALLALDENNDHN [F21N]
Reported endpoint: protein stability index
Test value: 3.85
--
Item sequence: YAGNLHESYVHGALLALDENFDHN [G9Y]
Reported endpoint: protein stability index
Test value: 2.34
--
Item sequence: YAGNLHESGPHGALLALDENFDHN [V10P]
Reported endpoint: protein stability index
Test value: 2.94
--
Item sequence: YAGNLHESGVHGAGLALDENFDHN [L14G]
Reported endpoint: protein stability index
Test value: 3.63
--
Item sequence: YAGNLHESGVHGALLALDENFPHN [D22P]
Reported endpoint: protein stability index
Test value: 2.47
--
Item sequence: YAGNLHESGVHGVLLALDENFDHN [A13V]
Reported endpoint: protein stability index
Test value: 2.07
--
Item sequence: YAGNLHESGVHGAALALDENFDHN [L14A]
Reported endpoint: protein stability index
Test value: 3.27
--
Item sequence: YAGNLHESGVHGALLALDENFDAN [H23A]
Reported endpoint: protein stability index
Test value: 2.18
--
Item sequence: YAGNLHESGVHGALLAGDENFDHN [L17G]
Reported endpoint: protein stability index
Test value: 3.4
--
Item sequence: YAGNLHESGVHGALEALDENFDHN [L15E]
Reported endpoint: protein stability index
Test value: 4.23
--
Item sequence: YALNLHESGVHGALLALDENFDHN [G3L]
Reported endpoint: protein stability index
Test value: 3.73
--
Item sequence: YAGNLHESGVHGALLALDENFDHT [N24T]
Reported endpoint: protein stability index
Test value: 2.42
--
Item sequence: YAGNLHESGVHGALLALDENFVHN [D22V]
Reported endpoint: protein stability index
Test value: 1.27
--
Item sequence: YAGNLHESGVHGALLALDENFDKN [H23K]
Reported endpoint: protein stability index
Test value: 2.53
--
Item sequence: YAGNLHESGVHGALLALDEGFDHN [N20G]
Reported endpoint: protein stability index
Test value: 3.1
--
Item sequence: YAGNLHESGVHGALLQLDENFDHN [A16Q]
Reported endpoint: protein stability index
Test value: 3.31
--
Item sequence: YAGNLHESGVHGALLALDENFDHS [N24S]
Reported endpoint: protein stability index
Test value: 2.41
--
Item sequence: YAGNLHELGVHGALLALDENFDHN [S8L]
Reported endpoint: protein stability index
Test value: 1.97
--
Item sequence: YAGNLHESGVHGALLALDHNFDHN [E19H]
Reported endpoint: protein stability index
Test value: 1.31
--
Item sequence: YAGNLHESGVHGALCALDENFDHN [L15C]
Reported endpoint: protein stability index
Test value: 3.06
--
Item sequence: YCGNLHESGVHGALLALDENFDHN [A2C]
Reported endpoint: protein stability index
Test value: 2.38
--
Item sequence: YAGNLHEDGVHGALLALDENFDHN [S8D]
Reported endpoint: protein stability index
Test value: 3.16
--
Item sequence: YAGNLHESGVHGAHLALDENFDHN [L14H]
Reported endpoint: protein stability index
Test value: 3.8
--
Item sequence: YAGALHESGVHGALLALDENFDHN [N4A]
Reported endpoint: protein stability index
Test value: 2.48
--
Item sequence: YAGNLHESGVHGNLLALDENFDHN [A13N]
Reported endpoint: protein stability index
Test value: 2.66
--
Item sequence: YAGNLTESGVHGALLALDENFDHN [H6T]
Reported endpoint: protein stability index
Test value: 2.83
--
Item sequence: YAGNLHESGRHGALLALDENFDHN [V10R]
Reported endpoint: protein stability index
Test value: 2.79
--
Item sequence: YAGNLHEAGVHGALLALDENFDHN [S8A]
Reported endpoint: protein stability index
Test value: 2.51
--
Item sequence: YAGNLHESGVHGALLALLENFDHN [D18L]
Reported endpoint: protein stability index
Test value: 1.76
--
Item sequence: YAGNLHESGHHGALLALDENFDHN [V10H]
Reported endpoint: protein stability index
Test value: 2.7
--
Item sequence: YAGNLHESGCHGALLALDENFDHN [V10C]
Reported endpoint: protein stability index
Test value: 2.06
--
Item sequence: YAGKLHESGVHGALLALDENFDHN [N4K]
Reported endpoint: protein stability index
Test value: 2.09
--
Item sequence: YAGNLHECGVHGALLALDENFDHN [S8C]
Reported endpoint: protein stability index
Test value: 2.39
--
Item sequence: YAGNLGESGVHGALLALDENFDHN [H6G]
Reported endpoint: protein stability index
Test value: 2.82
--
Item sequence: YAGNLHESGVHYALLALDENFDHN [G12Y]
Reported endpoint: protein stability index
Test value: 1.7

Each recorded value in this set is attributed to the supplement of paper PMC10567573.
